Where these numbers come from: ChEMBL document CHEMBL1147582

- System: Candida albicans
- TEST_DETAILS: Antifungal activity against Candida albicans at a concentration of 1 mg/mL in MeOH
- Format: functional
Measured Zone size, listed per entry.
Lab book: enter the figure in mm, no units written.

// worked examples, Zone size included
| COMPOUND | UNIT_INFO | Zone size |
| --- | --- | --- |
| CCC(C)CCCCCCCCCCC(=O)N[C@@H]1C[C@@H](O)CNC(=O)[C@@H]2[C@@H](O)[C@@H](C)CN2C(=O)[C@H](CO)NC(=O)[C@H]([C@@H](O)C(O)c2ccc(O)cc2)NC(=O)[C@@H]2C[C@@H](O)CN2C(=O)[C@H]([C@@H](C)O)NC1=O (some centres not stated) | mm | 25 |
| CCC(C)CCCCCCCCCCC(=O)N[C@@H]1C[C@@H](O)C(O)NC(=O)[C@@H]2[C@@H](O)[C@@H](C)CN2C(=O)[C@H](CO)NC(=O)[C@H]([C@@H](O)Cc2ccc(O)cc2)NC(=O)[C@@H]2C[C@@H](O)CN2C(=O)[C@H]([C@@H](C)O)NC1=O (some centres not stated) | mm | 30 |
| CCC(C)CCCCCCCCCCC(=O)N[C@@H]1C[C@H](O)C(C#N)NC(=O)[C@@H]2[C@@H](O)[C@@H](C)CN2C(=O)[C@H](CO)NC(=O)[C@H]([C@@H](O)[C@H](O)c2ccc(O)cc2)NC(=O)[C@@H]2C[C@@H](O)CN2C(=O)[C@H]([C@@H](C)O)NC1=O (some centres not stated) | mm | 19 |
| CCC(C)CCCCCCCCCCC(=O)N[C@@H]1C[C@@H](O)C(S(=O)(=O)CC(=O)OC)NC(=O)[C@@H]2[C@@H](O)[C@@H](C)CN2C(=O)C(CO)NC(=O)C([C@@H](O)[C@H](O)c2ccc(O)cc2)NC(=O)[C@@H]2C[C@@H](O)CN2C(=O)C(C(C)O)NC1=O (some centres not stated) | mm | 20 |
| CCC(C)CCCCCCCCCCC(=O)N[C@@H]1C[C@@H](O)C(c2ccc(OC)c(OC)c2)NC(=O)[C@@H]2[C@@H](O)[C@@H](C)CN2C(=O)C(CO)NC(=O)C([C@@H](O)[C@H](O)c2ccc(O)cc2)NC(=O)[C@@H]2C[C@@H](O)CN2C(=O)C(C(C)O)NC1=O (some centres not stated) | mm | 24 |

Consider the compound shown here: CCC(C)CCCCCCCCCCC(=O)N[C@@H]1C[C@@H](O)C(OC)NC(=O)[C@@H]2[C@@H](O)[C@@H](C)CN2C(=O)C(CO)NC(=O)C([C@@H](O)[C@H](O)c2ccc(O)cc2)NC(=O)[C@@H]2C[C@@H](O)CN2C(=O)C(C(C)O)NC1=O (some centres not stated) What is its recorded Zone size?
25

Consider the compound shown here: CCC(C)CCCCCCCCCCC(=O)N[C@@H]1C[C@@H](O)C(CN)NC(=O)[C@@H]2[C@@H](O)[C@@H](C)CN2C(=O)C(CO)NC(=O)C([C@@H](O)[C@H](O)c2ccc(O)cc2)NC(=O)[C@@H]2C[C@@H](O)CN2C(=O)C(C(C)O)NC1=O (some centres not stated) What is its recorded Zone size?
22
